Where do these numbers come from? They come from PubChem BioAssay.

Assay: blockers of RIG-like receptor reporter activation – cell-based, Sendai virus stimulus, luciferase, 10K MLSCN set, TLR/RLR signaling modifier project, primary screen (AID 602276);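 note: firefly luciferase from ISG56 promoter only with Renilla not read in this screen; 0% = Sendai virus plus DMSO and 100% = medium plus DMSO without virus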
Settings: HEK293 RL24 IRF3 luciferase reporter, at 10 µM, hits give high values
assay.endpoint: inhibition (%)
Numbers only, in %.

Some solved entries appear below for comparison.
molecule | unit.tag | recorded.measurement
O=C(NCc1ccc(F)cc1)c1cc2ccccn2n1 | % | 1.23
CCOC(=O)C1CCN(C(=O)COc2ccc(Cl)cc2Cl)CC1 | % | 3.61
O=C(CSc1ncnc2c1oc1ccccc12)NCc1ccco1 | % | 15.1
COCCN1CCN(c2c(C)c(C)nc3cc(-c4cccc(OC)c4)nn23)CC1 | % | 15.2
COc1cccc(-c2nnc(NC(=O)c3ccccc3Br)o2)c1 | % | 4.13
Cc1ccc(N2C(=O)c3ccccc3C2O)nc1 (centres undefined) | % | 48.3
CCOC(=O)c1cnc2c(OC)cccc2c1N1CCN(c2ccc(OC)cc2)CC1 | % | 19.3
Cc1cc(C)n2nc[n+](C)c2n1 | % | -6.03
O=C(Nc1ccncc1)c1cccc(F)c1 | % | 12.9
Cc1cc(NC(=O)CSc2nc(CCC3CCCC3)nc3ccccc23)no1 | % | 8.39

Provide each entry's inhibition from the list below.
1. N#Cc1ccccc1Cn1c(=O)n(Cc2ccc(C(=O)NCc3ccco3)cc2)c(=O)c2ccccc21
2. CCOC(=O)CNC(=O)CSc1ncnc2c1cnn2Cc1ccccc1
3. CC1=C(C(=O)NC2CCCC(C)C2C)C2(CCCCC2)OC1=O (centres undefined)
4. FC(F)(F)c1cccc(N2CCN(c3nnnn3-c3ccccc3)CC2)c1

OUTPUT:
1: 1.35; 2: 2.57; 3: -0.153; 4: 10.2
